# SYSTEM_TESTED: p300 (Homo sapiens)
# Construct: host or cells: A549 P300 HiBit cells
# Sequence (Q09472 whole entry): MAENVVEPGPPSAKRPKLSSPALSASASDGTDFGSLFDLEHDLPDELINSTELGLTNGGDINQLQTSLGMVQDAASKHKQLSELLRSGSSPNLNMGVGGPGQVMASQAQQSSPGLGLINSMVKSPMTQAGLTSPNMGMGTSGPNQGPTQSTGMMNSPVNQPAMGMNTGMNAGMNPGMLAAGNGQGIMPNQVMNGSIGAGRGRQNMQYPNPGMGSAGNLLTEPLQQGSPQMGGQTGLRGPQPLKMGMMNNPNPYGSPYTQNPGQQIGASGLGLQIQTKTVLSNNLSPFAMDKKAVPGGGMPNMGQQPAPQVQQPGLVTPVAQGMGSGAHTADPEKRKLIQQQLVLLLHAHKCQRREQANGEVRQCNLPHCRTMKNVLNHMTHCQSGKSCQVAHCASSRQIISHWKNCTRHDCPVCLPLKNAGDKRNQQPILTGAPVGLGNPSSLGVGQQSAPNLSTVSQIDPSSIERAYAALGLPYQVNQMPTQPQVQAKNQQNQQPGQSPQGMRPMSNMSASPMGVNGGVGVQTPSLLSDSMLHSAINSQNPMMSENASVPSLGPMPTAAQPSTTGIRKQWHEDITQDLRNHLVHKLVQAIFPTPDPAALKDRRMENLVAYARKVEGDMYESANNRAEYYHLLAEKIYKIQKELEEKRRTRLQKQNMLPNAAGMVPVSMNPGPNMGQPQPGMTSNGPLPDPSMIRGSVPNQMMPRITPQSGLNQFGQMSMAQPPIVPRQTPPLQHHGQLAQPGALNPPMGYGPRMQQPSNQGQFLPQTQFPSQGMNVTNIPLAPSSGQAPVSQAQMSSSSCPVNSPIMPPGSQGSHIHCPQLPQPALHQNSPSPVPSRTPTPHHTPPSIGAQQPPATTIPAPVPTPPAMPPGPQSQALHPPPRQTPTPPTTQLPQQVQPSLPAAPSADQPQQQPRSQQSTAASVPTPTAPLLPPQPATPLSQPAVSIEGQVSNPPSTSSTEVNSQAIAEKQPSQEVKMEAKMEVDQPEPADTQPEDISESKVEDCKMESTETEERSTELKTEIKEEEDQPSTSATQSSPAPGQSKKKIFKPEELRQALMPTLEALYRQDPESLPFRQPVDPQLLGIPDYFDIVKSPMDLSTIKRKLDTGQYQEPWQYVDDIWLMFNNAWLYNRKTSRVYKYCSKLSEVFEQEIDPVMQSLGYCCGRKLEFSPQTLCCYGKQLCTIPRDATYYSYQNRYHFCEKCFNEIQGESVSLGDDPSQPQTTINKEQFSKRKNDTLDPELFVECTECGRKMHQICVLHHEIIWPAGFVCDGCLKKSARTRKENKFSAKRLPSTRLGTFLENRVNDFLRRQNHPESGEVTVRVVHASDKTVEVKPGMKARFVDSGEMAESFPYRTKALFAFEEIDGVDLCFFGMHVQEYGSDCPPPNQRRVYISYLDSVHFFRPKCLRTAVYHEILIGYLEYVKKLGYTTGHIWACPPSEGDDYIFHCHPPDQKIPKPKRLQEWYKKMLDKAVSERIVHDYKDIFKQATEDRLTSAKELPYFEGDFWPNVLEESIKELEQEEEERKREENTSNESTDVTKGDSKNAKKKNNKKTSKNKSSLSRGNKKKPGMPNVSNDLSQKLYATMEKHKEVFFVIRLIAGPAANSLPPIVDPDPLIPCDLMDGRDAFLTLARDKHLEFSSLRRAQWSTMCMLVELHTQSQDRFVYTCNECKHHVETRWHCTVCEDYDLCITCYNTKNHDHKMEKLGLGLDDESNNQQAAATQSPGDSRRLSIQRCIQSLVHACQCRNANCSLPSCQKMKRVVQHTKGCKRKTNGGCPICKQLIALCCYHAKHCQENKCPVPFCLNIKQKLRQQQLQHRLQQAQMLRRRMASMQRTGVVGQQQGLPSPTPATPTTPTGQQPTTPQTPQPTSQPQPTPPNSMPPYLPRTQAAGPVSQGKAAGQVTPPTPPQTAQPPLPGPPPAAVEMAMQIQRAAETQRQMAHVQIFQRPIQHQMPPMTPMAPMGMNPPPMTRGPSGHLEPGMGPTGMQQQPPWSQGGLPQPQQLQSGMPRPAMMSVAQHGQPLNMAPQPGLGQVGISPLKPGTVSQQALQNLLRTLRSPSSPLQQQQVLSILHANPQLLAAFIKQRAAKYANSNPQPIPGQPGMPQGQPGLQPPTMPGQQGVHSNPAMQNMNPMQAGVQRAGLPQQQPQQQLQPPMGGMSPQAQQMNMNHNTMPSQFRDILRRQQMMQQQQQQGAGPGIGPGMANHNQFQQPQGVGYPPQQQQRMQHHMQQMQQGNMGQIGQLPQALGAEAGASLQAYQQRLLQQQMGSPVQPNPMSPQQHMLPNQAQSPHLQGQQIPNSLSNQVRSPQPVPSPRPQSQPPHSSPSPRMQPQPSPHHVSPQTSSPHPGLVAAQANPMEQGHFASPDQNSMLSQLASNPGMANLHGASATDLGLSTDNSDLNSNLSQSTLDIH
# EXPERIMENTAL_PROTOCOL: P300 degradation, HiBit technology in A549 P300 HiBit cells (2 h)
# Type: cell-based
# CONDITION_NOTES: A549, A549 P300 HiBit cells, 2 hrs post treatment
Listing: Dmax of selected compounds

Memo: Cc1cc(-c2cnc(Nc3cc(C4CCOCC4)c4c(c3)n(C)c(=O)n4C)cn2)cnc1C(=O)NCC#Cc1cc2c(C3CCC(=O)NC3=O)cccc2o1 (stereo not drawn) , reported Dmax: < 20%

Briefly, Dmax measured for CC(C)c1cc(-c2cccc3cc(-c4ccc(C(=O)NCC#Cc5ccc6occ(C7CCC(=O)NC7=O)c6n5)nc4)ncc23)cc2c1n(C)c(=O)n2C (stereo not drawn) : 40 to 59%

Dmax reading for CC(C)c1cc(-c2cccc3cc(-c4ccc(C(=O)NCC#Cc5cc6c(C7CCC(=O)NC7=O)cccc6o5)nc4)ncc23)cc2c1n(C)c(=O)n2C (stereo not drawn) : > 80%

Just so you know, measured Dmax for CCN(c1cnc(-c2ccc(C(=O)NCC#Cc3cc4c(C5CCC(=O)NC5=O)cccc4o3)nc2)nc1)c1cc(C2CCOCC2)c2c(c1)n(C)c(=O)n2C (stereo not drawn) came out at > 80%

Record Cc1cc(-c2ncc(N(C)c3cc(C4CCOCC4)c4c(c3)n(C)c(=O)n4C)nn2)cnc1C(=O)NCC#Cc1ccc2occ(C3CCC(=O)NC3=O)c2c1 (stereo not drawn) . Reported Dmax: < 20%

// Dmax value for Cc1cc2c(N3CCCc4nc(-c5ccc(C(=O)NCC#Cc6cc7c(C8CCC(=O)NC8=O)cccn7n6)nc5)ncc43)cc(C3CCOCC3)cc2n(C)c1=O (stereo not drawn) : 20 to 39%

* * *

# SYSTEM_TESTED: p300 (Homo sapiens)
# Construct: host or cells: A549 P300 HiBit cells
# EXPERIMENTAL_PROTOCOL: P300 degradation, HiBit technology in A549 P300 HiBit cells (2 h)
# Type: cell-based
# CONDITION_NOTES: A549 P300 HiBit cells, 2 hrs post treatment
Each entry below carries its reported DC50.

Please review the following examples before continuing.
Cc1cc(-c2ncc3c(n2)OCCN3c2ccc3c(c2)n(C)c(=O)n3C)cnc1C(=O)NCC#Cc1cc2ccnc(C3CCC(=O)NC3=O)c2o1 (stereo not drawn)    10 to 99 nM
CC(C)c1cc(-c2cccc3cc(-c4ccc(C(=O)NCC#Cc5ccc6cnn(C7CCC(=O)NC7=O)c6n5)nc4)ncc23)cc2c1n(C)c(=O)n2C (stereo not drawn)    10 to 99 nM
Cn1c(=O)n(C)c2cc(N3CCOc4nc(-c5ccc(C(=O)NCC#Cc6ccn7ncc(C8CCC(=O)NC8=O)c7c6)nc5)ncc43)ccc21 (stereo not drawn)    1 to 9.9 nM
Cc1cc2c(N3CCCc4nc(-c5ccc(C(=O)NCC#Cc6ccc7occ(C8CCC(=O)NC8=O)c7c6)nc5)ncc43)nc(N3CC4CCC(C3)O4)cc2n(C)c1=O (stereo not drawn)    1 to 9.9 nM
Cc1cc2c(N3CCCc4nc(-c5ccc(C(=O)NCC#Cc6cc7c(C8CCC(=O)NC8=O)cccc7o6)nc5)ncc43)cc(C3CC3)cc2n(C)c1=O (stereo not drawn)    1 to 9.9 nM

Entry under test: Cc1cc2c(N3CCCc4cc(-c5ccc(C(=O)NCC#Cc6cc7c(C8CCC(=O)NC8=O)cccc7o6)nc5)nnc43)cc(C3CCOCC3)cc2n(C)c1=O (stereo not drawn) . Its DC50 was < 1 nM
